# assaySystem: CaHse1
# assayProcedure: SPOT peptide array binding signal intensity (averaged, normalized) (arbitrary units (background-subtracted, floor 0; scale differs between SH3 domains)); higher = stronger binding of the SH3 domain to the peptide
Each item that follows carries a reported SPOT peptide array binding signal intensity.

* SKAKRPKFLLDLQIK | ≤ 0

Data request, read-out SPOT peptide array binding signal intensity, for `QPPLPSSAPPIPTSH`
≤ 0

Quick one: `STKKPRPPVKSKPKH`
≤ 0
